target: ENPP1 (Homo sapiens); experiment: Indirect quantitation of 2',3'-cGAMP hydrolysis (AMP-Glo Assay kit); assay type: biochemical; conditions: cGAMP substrate; Ki from IC50 by Cheng-Prusoff; read-out: ENPP1 Inhibition -cGAMP: Ki
For each of the molecules below, state its Ki.

Entry COc1cc2ncnc(NC(C)c3ccc(NS(N)(=O)=O)cc3)c2cc1OC (stereo in doubt) [Example 253] , Ki reported as < 100 nM

# Ki (molecule: "NS(=O)(=O)c1ccc(CNc2ncnc3cc(F)ccc23)cc1" ) is < 100 nM

Sure, the documented Ki for "COc1ccc2c(-c3ccc(CNS(N)(=O)=O)s3)ccnc2c1" is < 100 nM

GET /value?item= "CNc1cc(OC)c(OC)cc1C(=O)N1CCC(CCNS(N)(=O)=O)CC1" &field=Ki returns > 1000 nM

get_value(item= "COc1ccc2c(Oc3ccc(NS(N)(=O)=O)cc3C(F)(F)F)ccnc2c1" , readout=Ki) returns 100 to 1000 nM

response.value for "COc1ccc2c(c1)OCC(=O)N2Cc1ccc(NS(N)(=O)=O)cc1" (field: Ki) = > 1000 nM

Reported Ki ( "COc1ccc2c(N3CCC4(CCNC4)CC3)c(C#N)cnc2c1" ) = 100 to 1000 nM

Summary for this molecule, COc1ccc2ncnc(NC(C)c3ccc(NS(N)(=O)=O)cc3)c2c1 (stereo not drawn) : Ki is < 100 nM

Record summary for "COc1cc2cnn(-c3ccc(CCNS(N)(=O)=O)cc3)c2cc1OC" : reported Ki = > 1000 nM

Per the record, "COc1cc2ncn(Cc3ccc(NS(N)(=O)=O)cc3)c(=O)c2cc1OC" has Ki of > 1000 nM

Value of measured Ki for the entry "COc1ccc2c(-c3ccc(CNS(N)(=O)=O)c(F)c3)ccnc2c1" : < 100 nM

Ki reading for "N#Cc1cnc2cc(OC(F)F)ccc2c1-c1ccc2c(c1)CN(S(N)(=O)=O)CC2" : 100 to 1000 nM

Kindly note the recorded Ki for "COc1cc2ncnc(N3CCC(NS(N)(=O)=O)CC3)c2cc1OC" , which is 100 to 1000 nM

Item: "COc1cccc(C(=O)N2CCC(CCNS(N)(=O)=O)CC2)c1" | Ki: > 1000 nM

Recorded result, "COc1ccc2c(Oc3ccc(NS(N)(=O)=O)cc3)c(C(F)(F)F)cnc2c1" , Ki: 100 to 1000 nM

What the record says about "COc1ccc2c(Oc3ccc4c(c3)CCN4S(N)(=O)=O)ccnc2c1" : Ki is < 100 nM

Reported Ki of "COc1cc2nccc(Oc3cc(F)c(NS(N)(=O)=O)cc3F)c2cc1OC" : < 100 nM

The molecule identified as "COc1ccc2c(-c3ccc(CNS(N)(=O)=O)cn3)ccnc2c1" registered its Ki at < 100 nM

----------
Provide the recorded Substrate Selectivity: Ki_AMP-pNP/Ki_cGAMP for the entries that follow.
target: ENPP1 (Homo sapiens, UniProt P22413); test: Substrate selectivity ratio, inhibition of cGAMP hydrolysis versus ATP hydrolysis; format: biochemical; settings: ratio Ki AMP-pNP / Ki cGAMP

Note to self: Substrate Selectivity: Ki_AMP-pNP/Ki_cGAMP recorded for COc1cc2ncnc(N3CCC(CCNS(N)(=O)=O)CC3)c2cc1OC(C)C [Example 205] was > 14.4

Substrate Selectivity: Ki_AMP-pNP/Ki_cGAMP reading for COc1ccc2c(Oc3ccc(NS(N)(=O)=O)cc3C#N)ccnc2c1 [Example 353] : >74

Item: COc1cc2ncc(-c3ccc(CNS(N)(=O)=O)cc3)n2cc1OC [Example 266] | Substrate Selectivity: Ki_AMP-pNP/Ki_cGAMP: >5.9

In plain terms, COc1cc2ncnc(N3CCC(CCC(=O)NO)CC3)c2cc1OC [Example 159] has a documented Substrate Selectivity: Ki_AMP-pNP/Ki_cGAMP of 54.8

Substrate Selectivity: Ki_AMP-pNP/Ki_cGAMP in this record for COc1ccc2c(-c3ccc(CNS(N)(=O)=O)cc3Cl)ccnc2c1 [Example 419] : >70

Record NS(=O)(=O)NCc1ccc(-c2ccnc3cc(F)ccc23)cc1 [Example 296] . Reported Substrate Selectivity: Ki_AMP-pNP/Ki_cGAMP: > 40.3

Please fill in: Substrate Selectivity: Ki_AMP-pNP/Ki_cGAMP reported for COc1cc2ncn(-c3ccc(CCNS(N)(=O)=O)cc3)c2cc1OC [Example 217] = > 18.2

Reported Substrate Selectivity: Ki_AMP-pNP/Ki_cGAMP of COc1cc2ncnc(N3CCC4(CC3)CN(S(N)(=O)=O)C4)c2cc1OC [Example 30] : 39.4

So for COc1ccc2c(-c3ccc4c(c3)CN(S(N)(=O)=O)CC4)ccnc2c1 [Example 305] , the logged Substrate Selectivity: Ki_AMP-pNP/Ki_cGAMP turned out to be >13.0

Entry COc1cc2nccc(-c3ccc(CN(C)S(N)(=O)=O)cc3)c2cc1OC [Example 61] — recorded Substrate Selectivity: Ki_AMP-pNP/Ki_cGAMP = 23.7

Reported Substrate Selectivity: Ki_AMP-pNP/Ki_cGAMP for COc1cc2ncnc(NC3CCC(NS(N)(=O)=O)CC3)c2cc1OC (stereo not shown) [Example 272] was >35.2

Reported Substrate Selectivity: Ki_AMP-pNP/Ki_cGAMP for COc1cc2ncc(C#N)c(N3CCC(CCNS(N)(=O)=O)CC3)c2cn1 [Example 245] was >92.6

Field Substrate Selectivity: Ki_AMP-pNP/Ki_cGAMP (entry COc1cc2ncnc(N3CCC4(CCNC4)CC3)c2cc1OC [Example 274] ) reads >6.4

COc1cc2nccc(-c3ccc(CNS(N)(=O)=O)nc3)c2cc1OC [Example 314] has a reported Substrate Selectivity: Ki_AMP-pNP/Ki_cGAMP of 35.7

For reference, reported Substrate Selectivity: Ki_AMP-pNP/Ki_cGAMP for COc1cc2nccc(N3CCC(CCNS(N)(=O)=O)CC3)c2cc1F [Example 220] stands at 35.9

Consider COc1cc2ncnc(N3CCc4cc(NS(N)(=O)=O)ccc4C3)c2cc1OC [Example 137] . Its measured Substrate Selectivity: Ki_AMP-pNP/Ki_cGAMP is 22.4

The recorded Substrate Selectivity: Ki_AMP-pNP/Ki_cGAMP for entry COc1ccc2ncnc(NC(C)c3ccc(NS(N)(=O)=O)cc3)c2c1 (stereo not shown) [Example 299] equals >45.9

The compound listed as COc1cc2ncnc(-c3ccc(CN(C4CC4)S(N)(=O)=O)cc3)c2cc1OC [Example 285] has a reported Substrate Selectivity: Ki_AMP-pNP/Ki_cGAMP of >28.3

Entry COc1ccc2c(Oc3ccc(NS(N)(=O)=O)cc3C(F)(F)F)ccnc2c1 [Example 317] ; Substrate Selectivity: Ki_AMP-pNP/Ki_cGAMP = >49.9

----------
Kindly state pKi for each of the entries shown.
Target: UniProt:P22413
Sequence (P22413 1-925): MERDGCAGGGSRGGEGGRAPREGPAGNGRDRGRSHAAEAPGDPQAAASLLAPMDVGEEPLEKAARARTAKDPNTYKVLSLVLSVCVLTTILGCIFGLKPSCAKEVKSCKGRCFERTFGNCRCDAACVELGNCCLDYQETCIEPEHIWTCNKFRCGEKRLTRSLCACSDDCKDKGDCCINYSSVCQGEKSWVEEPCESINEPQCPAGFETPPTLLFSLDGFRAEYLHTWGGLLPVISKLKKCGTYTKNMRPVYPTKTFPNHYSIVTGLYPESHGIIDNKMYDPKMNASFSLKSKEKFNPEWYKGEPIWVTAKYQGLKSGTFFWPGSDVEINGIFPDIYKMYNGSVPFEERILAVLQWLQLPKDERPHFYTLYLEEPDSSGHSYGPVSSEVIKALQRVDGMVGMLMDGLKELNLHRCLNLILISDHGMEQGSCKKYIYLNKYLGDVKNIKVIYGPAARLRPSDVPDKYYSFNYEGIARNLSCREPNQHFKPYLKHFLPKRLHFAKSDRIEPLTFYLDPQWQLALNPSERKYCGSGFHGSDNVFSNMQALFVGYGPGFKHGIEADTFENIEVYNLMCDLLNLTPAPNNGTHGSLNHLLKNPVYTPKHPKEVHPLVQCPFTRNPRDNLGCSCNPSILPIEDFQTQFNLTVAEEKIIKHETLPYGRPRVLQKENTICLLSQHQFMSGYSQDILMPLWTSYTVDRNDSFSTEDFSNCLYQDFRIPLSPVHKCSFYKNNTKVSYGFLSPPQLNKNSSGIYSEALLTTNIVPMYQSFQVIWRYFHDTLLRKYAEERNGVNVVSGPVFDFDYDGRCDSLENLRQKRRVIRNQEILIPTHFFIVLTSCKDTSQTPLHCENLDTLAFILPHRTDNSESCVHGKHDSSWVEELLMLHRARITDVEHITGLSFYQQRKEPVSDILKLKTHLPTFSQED
Assay: Indirect quantitation of 2',3'-cGAMP hydrolysis (AMP-Glo Assay kit)
Type: biochemical
Details: cGAMP substrate; Ki from IC50 by Cheng-Prusoff; read-out: ENPP1 Inhibition -cGAMP: Ki
pKi: −log10 of the molar value.

Looking up "COc1cc2nccc(OCc3ccc(NS(N)(=O)=O)cc3)c2cc1OC" , I found its pKi recorded as 6.00 to 7.00

Entry under test: "NS(=O)(=O)NCCC1CCN(c2ncnc3c[nH]nc23)CC1" . Its pKi was < 6.00

Noted for "NS(=O)(=O)N1CCC2(CCN(c3ncnc4ccccc34)CC2)C1" : its pKi reads > 7.00

pKi reported for this compound "COc1ccc2c(Oc3ncc(NS(N)(=O)=O)cc3C)ccnc2c1" : > 7.00

Form: compound = "COc1cc2ncnc(N3CCC(CCNC(N)=O)CC3)c2cc1OC" ; pKi = 6.00 to 7.00

The recorded pKi for "COc1ccc2c(N3CCC4(CC3)CCN(S(N)(=O)=O)C4)c(C#N)cnc2c1" is > 7.00

For reference, reported pKi for "COc1cc2ccc(=O)n(Cc3ccc(NS(N)(=O)=O)cc3)c2cc1OC" stands at 6.00 to 7.00

What the record says about "COc1cc2ncnc(N3CCC(CCC(N)=O)CC3)c2cc1OC" : pKi is 6.00 to 7.00

The measured pKi associated with "COc1ccc2c(-c3ccc(CNS(N)(=O)=O)cc3)ccnc2n1" reads > 7.00
